# Study System: ERK1 (Homo sapiens, UniProt P27361)
# Construct: purchased Jubilant Biosys
# Sequence (P27361 whole entry): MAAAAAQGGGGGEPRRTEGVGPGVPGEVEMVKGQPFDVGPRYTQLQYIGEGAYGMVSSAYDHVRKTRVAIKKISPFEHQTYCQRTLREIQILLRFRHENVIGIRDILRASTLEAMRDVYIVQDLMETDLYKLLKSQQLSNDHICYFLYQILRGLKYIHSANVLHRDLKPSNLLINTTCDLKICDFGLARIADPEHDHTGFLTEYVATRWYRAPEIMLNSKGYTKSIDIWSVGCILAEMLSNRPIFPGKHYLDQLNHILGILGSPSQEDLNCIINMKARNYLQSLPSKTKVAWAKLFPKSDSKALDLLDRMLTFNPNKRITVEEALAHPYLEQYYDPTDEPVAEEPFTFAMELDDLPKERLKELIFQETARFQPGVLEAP
# Test Method Notes: ERK1 HTRF (biochemical) assay
# Condition Parameters: HTRF biochemical assay
Endpoint: IC50

1. Cc1cnc(Nc2ccccn2)cc1-n1ccc(C(=O)NC(CO)c2ccccc2)c1 (centres unmarked) ... 50 to 100 nM
2. Cc1cnc(NC2CCOCC2)nc1-n1cnc(C(=O)N[C@H](CN)c2cc(F)cc(Cl)c2)c1 ... < 50 nM
3. Cc1cccc(CNC(=O)c2cn(-c3nc(NC4CCOCC4)ncc3C)cn2)n1 ... < 50 nM
4. Cc1cnc(N[C@H]2CCOC2)nc1-n1cnc(C(=O)NC(CN)c2cc(F)cc(Cl)c2)c1 (some centres unmarked) ... < 50 nM
5. Cc1cnc(NC2CCOCC2)nc1-n1cnc(C(=O)NC(CN)c2cc(F)cc(Cl)c2)c1 (centres unmarked) ... < 50 nM
